Biological target: PIM-1 (Homo sapiens (Human))
Sequence (P11309 whole entry, species assumed): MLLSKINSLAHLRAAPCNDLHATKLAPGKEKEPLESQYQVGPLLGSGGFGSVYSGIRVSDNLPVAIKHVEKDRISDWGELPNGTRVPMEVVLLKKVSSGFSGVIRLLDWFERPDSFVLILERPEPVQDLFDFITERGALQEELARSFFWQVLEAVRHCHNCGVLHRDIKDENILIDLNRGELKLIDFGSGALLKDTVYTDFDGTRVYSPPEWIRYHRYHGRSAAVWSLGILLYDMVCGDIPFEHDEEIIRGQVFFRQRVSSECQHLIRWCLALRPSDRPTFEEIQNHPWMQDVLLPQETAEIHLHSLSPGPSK
Test: inhibition test on kinase PIM-1 (residual activity, IC50)
Assay type: biochemical
Details: product at 10 μmol/L; Table 2; N.I. = not inhibitory; read-out: Percentage of residual activity PIM-1
Text: MKK1, ERK 1, ERK 2, JNK1, JNK2, JNK3, p38a MAPK, p38b MAPK, p38g MAPK, p38s MAPK, ERK8, RSK1, RSK2, PDK1, PKBa, PKBb, SGK1, S6K1, PKA, ROCK2, PRK2, PKCa, PKC zeta, PKD1, MSK1, MNK1, MNK2, MAPKAP-K2, MAPKAP-K3, PRAK, CAMKKa, CAMKKb, CAMK1, SmMLCK, PHK, CHK1, CHK2, GSK3b, CDK2/cyclin A, PLK1, PLK1 (Okadaic acid), Aurora B, Aurora C, AMPK, MARK3, BRSK2, MELK, CK1, CK2, NEK2a, NEK6, NEK7, IKKb, PIM-1, PIM-2, PIM-3, SRPK1, MST2, EF2K, HIPK2, HIPK3, PAK-4, PAK5, PAK6, Src, Lck, CSK. […]
parameter: remaining activity at 10 µM (%)
Lab book: enter the figure in %, no units written.

Below: 10 compounds and their reported remaining activity at 10 µM.
compound | unit.descriptor | endpoint.value
COc1cccc(-c2ccc3[nH]c4c(ccc5c(C=O)c[nH]c54)c3c2)c1 | % | 17
CCN(CC)CC(O)c1c[nH]c2c1ccc1c3ccccc3[nH]c12 (centres unmarked) | % | 24
O=Cc1c[nH]c2c1ccc1c3cc(F)ccc3[nH]c12 | % | 4
O=Cc1c[nH]c2c1ccc1c2[nH]c2cccc(Br)c21 | % | 2
O=S(=O)(c1ccccc1)n1ccc2ccc3c4ccccc4[nH]c3c21 | % | 61
NC(=O)c1c[nH]c2c1ccc1c3ccccc3[nH]c12 | % | 9
Clc1cc(Cl)c2c(c1)[nH]c1c2ccc2cc[nH]c21 | % | 10
O=Cc1c[nH]c2c1ccc1c3cccc(F)c3[nH]c12 | % | 5
OCCc1c[nH]c2c1ccc1c3ccccc3[nH]c12 | % | 35
CCN(CC)CCc1c[nH]c2c1ccc1c3ccccc3[nH]c12 | % | 39

Task: Entry under review: O=Cc1c[nH]c2c1ccc1c3cc(-c4ccccc4)ccc3[nH]c12 . Reported remaining activity at 10 µM?
Output: 16

Task: Record request: remaining activity at 10 µM value, item O=Cc1c[nH]c2c1ccc1c3cc(-c4ccc(OC(F)(F)F)cc4)ccc3[nH]c12
Output: 29

Task: What value of remaining activity at 10 µM has been recorded for this entry: O=Cc1c[nH]c2c1ccc1c3cc(-c4ccc(F)cc4)ccc3[nH]c12
Output: 15

Task: For COc1cccc(-c2ccc3[nH]c4c(ccc5cc[nH]c54)c3c2)c1 , what is its reported remaining activity at 10 µM?
Output: 46

Task: Return reported remaining activity at 10 µM; argument: CCN(CC)C(=O)C(=O)c1c[nH]c2c1ccc1c3ccccc3[nH]c12
Output: 54
